meta.source: patent US6685617B1

target: α4β1 integrin (Jurkat cell adhesion to immobilized CS-1 derived peptide CLHPGEILDVPST) (Homo sapiens, UniProt P05556+P13612); construct: 100 μl of Jurkat cells (2.5×10^6 cells/ml) in DMEM plus BSA; host or cells: Jurkat T-cell line; assay: Jurkat-CS-1 assay; type: cell-based; conditions: Jurkat cells on CS-1 peptide coated plates; read-out: JK/CS-1 (Jurkat CS-1 Assay IC50 value range)
pIC50: −log10 of the molar value.
Entries and their measured pIC50 follow.

Below, 6 molecules whose answers are already recorded.
Requested field: pIC50. Item: O=C(Nc1ccc(C[C@H](NC(=O)[C@@H]2CCCCN2C(=O)C2CCCC(C(=O)O)C2)C(=O)O)cc1)c1c(Cl)cccc1Cl (stereo partly shown)
≥ 7.30

Requested field: pIC50. Item: CCOC(=O)N1C(c2ccncc2)SC[C@@H]1C(=O)N[C@@H](Cc1ccc(NC(=O)c2c(Cl)cccc2Cl)cc1)C(=O)O (stereo partly shown)
6.12 to 7.30

Requested field: pIC50. Item: `CC(=O)N1CSC[C@@H]1C(=O)N[C@@H](Cc1ccc(OCc2c(Cl)cccc2Cl)cc1)C(=O)O`
6.12 to 7.30

Requested field: pIC50. Item: `COC(=O)[C@H](Cc1ccc(NC(=O)c2c(Cl)cccc2Cl)cc1)NC(=O)[C@@H]1CSCCN1C(=O)OC(C)(C)C`
≤ 6.12

Requested field: pIC50. Item: CCOC(=O)N1[C@@H](C(=O)N[C@@H](Cc2ccc(NC(=O)c3c(Cl)cccc3Cl)cc2)C(=O)OC)CSC12CCCCC2 (relative stereo)
≤ 6.12

Requested field: pIC50. Item: `CCOC(=O)N1CSC[C@@H]1C(=O)N[C@@H](Cc1ccc(NC(=O)c2ccccc2)cc1)C(=O)O`
≤ 6.12

Further cases:
Requested field: pIC50. Item: `CN(C)c1cccc2c(S(=O)(=O)N3CSC[C@@H]3C(=O)N[C@@H](Cc3ccc(NC(=O)c4c(Cl)cccc4Cl)cc3)C(=O)O)cccc12`
≤ 6.12

Requested field: pIC50. Item: CC1(C)SC(C)(C)N(C(=O)CCCC(=O)O)[C@@H]1C(=O)N[C@@H](Cc1ccc(NC(=O)c2c(Cl)cccc2Cl)cc1)C(=O)O (relative stereo)
6.12 to 7.30

Requested field: pIC50. Item: CCOC(=O)N1CSC[C@H]1C(=O)N[C@@H](Cc1ccc(NC(=O)c2c(Cl)cccc2Cl)cc1)C(=O)OC (relative stereo)
≤ 6.12

Requested field: pIC50. Item: `COC(=O)[C@H](Cc1ccc(NC(=O)c2c(Cl)cccc2Cl)cc1)NC(=O)[C@@H]1CCN1`
≤ 6.12

Requested field: pIC50. Item: O=C(Nc1ccc(C[C@H](NC(=O)[C@@H]2CCCN2C(=O)C2CCCC(C(=O)O)C2)C(=O)O)cc1)c1c(Cl)cccc1Cl (stereo partly shown)
6.12 to 7.30

Requested field: pIC50. Item: COCCC(=O)N1CCCC(C(=O)N[C@@H](Cc2ccc(NC(=O)c3c(Cl)cccc3Cl)cc2)C(=O)O)C1 (stereo partly shown)
6.12 to 7.30

###

biological target: α4β1 integrin (Jurkat T-cell adhesion to IL-1 stimulated endothelial cell monolayers) (Homo sapiens, UniProt P05556+P13612); construct: a T-cell line, Jurkat, known to express the α4β1 integrin; assay: Jurkat-endothelial cell adhesion assay (Jurkat EC); details: Jurkat cells on IL-1 stimulated human umbilical vein endothelial cells; read-out: JK/EC (Jurkat EC Assay IC50 value range)
Sequence (P13612 34-1032): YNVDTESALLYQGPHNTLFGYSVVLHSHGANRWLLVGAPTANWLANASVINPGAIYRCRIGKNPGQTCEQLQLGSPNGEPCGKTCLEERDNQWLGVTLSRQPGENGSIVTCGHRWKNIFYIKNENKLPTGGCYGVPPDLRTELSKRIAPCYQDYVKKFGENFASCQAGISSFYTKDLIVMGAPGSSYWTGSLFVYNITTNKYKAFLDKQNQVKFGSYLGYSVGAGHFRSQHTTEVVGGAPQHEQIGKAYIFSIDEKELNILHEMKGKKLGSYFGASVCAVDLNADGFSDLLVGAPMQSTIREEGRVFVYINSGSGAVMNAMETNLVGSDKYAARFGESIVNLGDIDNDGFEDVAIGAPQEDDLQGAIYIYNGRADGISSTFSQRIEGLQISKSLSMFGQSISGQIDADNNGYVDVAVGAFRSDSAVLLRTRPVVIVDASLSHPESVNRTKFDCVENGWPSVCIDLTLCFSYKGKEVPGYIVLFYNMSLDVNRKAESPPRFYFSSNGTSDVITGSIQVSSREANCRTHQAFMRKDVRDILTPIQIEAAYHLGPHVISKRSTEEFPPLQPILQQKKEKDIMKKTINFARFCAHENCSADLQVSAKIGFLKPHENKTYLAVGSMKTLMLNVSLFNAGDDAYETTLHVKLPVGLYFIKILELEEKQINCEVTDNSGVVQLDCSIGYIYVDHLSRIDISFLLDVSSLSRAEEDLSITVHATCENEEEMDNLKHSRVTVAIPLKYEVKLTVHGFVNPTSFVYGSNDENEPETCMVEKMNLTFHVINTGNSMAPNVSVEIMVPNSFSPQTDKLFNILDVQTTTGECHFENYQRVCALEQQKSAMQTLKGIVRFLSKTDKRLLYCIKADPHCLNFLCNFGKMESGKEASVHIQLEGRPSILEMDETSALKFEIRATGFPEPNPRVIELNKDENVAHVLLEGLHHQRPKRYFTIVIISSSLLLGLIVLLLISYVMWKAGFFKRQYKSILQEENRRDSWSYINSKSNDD
Sequence (P05556 21-798): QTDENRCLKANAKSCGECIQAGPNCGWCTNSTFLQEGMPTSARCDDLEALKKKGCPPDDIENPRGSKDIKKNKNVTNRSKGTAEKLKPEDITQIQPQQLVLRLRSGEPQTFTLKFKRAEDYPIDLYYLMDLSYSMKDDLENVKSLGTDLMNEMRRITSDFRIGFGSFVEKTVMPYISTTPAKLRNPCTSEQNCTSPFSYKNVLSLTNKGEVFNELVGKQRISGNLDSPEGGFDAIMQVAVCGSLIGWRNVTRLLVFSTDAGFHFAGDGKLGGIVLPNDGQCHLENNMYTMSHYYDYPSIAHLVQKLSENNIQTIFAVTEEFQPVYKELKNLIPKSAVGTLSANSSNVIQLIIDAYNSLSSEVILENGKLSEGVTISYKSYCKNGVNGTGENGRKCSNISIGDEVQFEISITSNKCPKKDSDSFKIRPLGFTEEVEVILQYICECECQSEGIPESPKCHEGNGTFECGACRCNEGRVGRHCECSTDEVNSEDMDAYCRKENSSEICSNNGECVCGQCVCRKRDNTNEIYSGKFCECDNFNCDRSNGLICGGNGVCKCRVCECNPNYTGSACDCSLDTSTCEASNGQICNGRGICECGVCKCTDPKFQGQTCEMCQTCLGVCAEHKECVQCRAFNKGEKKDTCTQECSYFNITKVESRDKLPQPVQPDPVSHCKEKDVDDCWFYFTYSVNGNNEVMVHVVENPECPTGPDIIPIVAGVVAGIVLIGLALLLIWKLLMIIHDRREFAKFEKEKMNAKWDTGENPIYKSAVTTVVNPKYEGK
pIC50: −log10 of the molar value.
Entries and their measured pIC50 follow.

Requested field: pIC50. Item: CCOC(=O)N1CSC[C@@H]1C(=O)N[C@@H](Cc1ccc(NC(=O)c2c(Cl)cccc2Cl)cc1)C(=O)O (relative stereo)
≥ 6.60

Requested field: pIC50. Item: COC(=O)[C@H](Cc1ccc(NC(=O)c2c(Cl)cccc2Cl)cc1)NC(=O)[C@H]1CSC(C)(C)N1C(=O)OC(C)(C)C (relative stereo)
≤ 6.00

Requested field: pIC50. Item: `COCCC(=O)N1CCC[C@H]1C(=O)N[C@@H](Cc1ccc(NC(=O)c2c(Cl)cccc2Cl)cc1)C(=O)O`
≤ 6.00

###

biological target: α4β1 integrin (Jurkat cell adhesion to immobilized CS-1 derived peptide CLHPGEILDVPST) (Homo sapiens, UniProt P05556+P13612); construct: 100 μl of Jurkat cells (2.5×10^6 cells/ml) in DMEM plus BSA; assay: Jurkat-CS-1 assay; settings: Jurkat cells on CS-1 peptide coated plates; read-out: JK/CS-1 (Jurkat CS-1 Assay IC50 value range)
Readout Type: IC50

Requested field: IC50. Item: CC(C)(CC(=O)O)CC(=O)N1CCCC(C(=O)N[C@@H](Cc2ccc(NC(=O)c3c(Cl)cccc3Cl)cc2)C(=O)O)C1 (some centres unmarked) [Example 196]
50 to 750 nM

Requested field: IC50. Item: COC(=O)CCCC(=O)N1CSC[C@@H]1C(=O)N[C@@H](Cc1ccc(NC(=O)c2c(Cl)cccc2Cl)cc1)C(=O)O (relative stereo) [Example 151]
≤ 50 nM

Requested field: IC50. Item: O=C(O)c1cncc(C(=O)N2CCCC[C@H]2C(=O)N[C@@H](Cc2ccc(NC(=O)c3c(Cl)cccc3Cl)cc2)C(=O)O)c1 [Example 172]
≤ 50 nM

Requested field: IC50. Item: O=C(O)/C=C/C(=O)N1CCC[C@@H]1C(=O)N[C@@H](Cc1ccc(NC(=O)c2c(Cl)cccc2Cl)cc1)C(=O)O [Example 255]
50 to 750 nM

Requested field: IC50. Item: CCOC(=O)N1CSC[C@@H]1C(=O)N[C@@H](Cc1ccc(NC(=O)c2c(Cl)cccc2Cl)cc1)C(=O)O (relative stereo) [Example 12]
≤ 50 nM

Requested field: IC50. Item: COCCC(=O)N1CCCC[C@H]1C(=O)N[C@@H](Cc1ccc(NC(=O)c2c(Cl)cccc2Cl)cc1)C(=O)O [Example 177]
≤ 50 nM

Further cases:
Requested field: IC50. Item: CC(=O)N1CSC[C@@H]1C(=O)N[C@@H](Cc1ccc(NC(=O)c2c(Cl)cccc2Cl)cc1)C(=O)O [Example 62]
≤ 50 nM

Requested field: IC50. Item: O=C(Nc1ccc(C[C@H](NC(=O)[C@@H]2CCCCN2C(=O)C2CCCO2)C(=O)O)cc1)c1c(Cl)cccc1Cl (some centres unmarked) [Example 192]
≤ 50 nM

###

biological target: α4β1 integrin (Jurkat T-cell adhesion to IL-1 stimulated endothelial cell monolayers) (Homo sapiens, UniProt P05556+P13612); construct: a T-cell line, Jurkat, known to express the α4β1 integrin; test: Jurkat-endothelial cell adhesion assay (Jurkat EC); conditions: Jurkat cells on IL-1 stimulated human umbilical vein endothelial cells; read-out: JK/EC (Jurkat EC Assay IC50 value range)
pIC50: −log10 of the molar value.
Readout Type: pIC50

Requested field: pIC50. Item: COC(=O)[C@H](Cc1ccc(OCc2c(Cl)cccc2Cl)cc1)NC(=O)[C@H]1CSCN1C(=O)OC1CCOC1 (relative stereo)
≤ 6.00

Requested field: pIC50. Item: `O=C(O)c1cccc(C(=O)N2CCC[C@H]2C(=O)N[C@@H](Cc2ccc(NC(=O)c3c(Cl)cccc3Cl)cc2)C(=O)O)c1`
≤ 6.00

Requested field: pIC50. Item: `CN(C)c1cccc2c(S(=O)(=O)N3CSC[C@@H]3C(=O)N[C@@H](Cc3ccc(NC(=O)c4c(Cl)cccc4Cl)cc3)C(=O)O)cccc12`
≤ 6.00

Requested field: pIC50. Item: `COC(=O)[C@H](Cc1ccc(NC(=O)c2c(Cl)cccc2Cl)cc1)NC(=O)[C@H]1CSCN1S(C)(=O)=O`
≥ 6.60

Consider the additional compound presented here.
Requested field: pIC50. Item: `O=C(O)/C=C\C(=O)N1CCC(C(=O)N[C@@H](Cc2ccc(NC(=O)c3c(Cl)cccc3Cl)cc2)C(=O)O)CC1`
≤ 6.00

###

target: α4β1 integrin (Jurkat T-cell adhesion to IL-1 stimulated endothelial cell monolayers) (Homo sapiens, UniProt P05556+P13612); construct: a T-cell line, Jurkat, known to express the α4β1 integrin; test: Jurkat-endothelial cell adhesion assay (Jurkat EC); conditions: Jurkat cells on IL-1 stimulated human umbilical vein endothelial cells; read-out: JK/EC (Jurkat EC Assay IC50 value range)
pIC50: −log10 of the molar value.
Readout Type: pIC50

Below, 3 molecules whose answers are already recorded.
Requested field: pIC50. Item: `CS(=O)(=O)N1CSC[C@@H]1C(=O)N[C@@H](Cc1ccc(OCc2c(Cl)cccc2Cl)cc1)C(N)=O`
≤ 6.00

Requested field: pIC50. Item: `O=C(O)c1ccc2cc(C(=O)N3CCC(C(=O)N[C@@H](Cc4ccc(NC(=O)c5c(Cl)cccc5Cl)cc4)C(=O)O)CC3)ccc2c1`
≤ 6.00

Requested field: pIC50. Item: `COc1ccc(C(=O)N2CCC[C@H]2C(=O)N[C@@H](Cc2ccc(NC(=O)c3c(Cl)cccc3Cl)cc2)C(=O)O)cc1OC`
≤ 6.00

Further cases:
Requested field: pIC50. Item: `O=C(Nc1ccc(C[C@H](NC(=O)[C@@H]2CSCCN2C(=O)CCc2nnn[nH]2)C(=O)O)cc1)c1c(Cl)cccc1Cl`
6.00 to 6.60

Requested field: pIC50. Item: CCOC(=O)N1CSC[C@H]1C(=O)N[C@@H](Cc1ccc(NC(=O)c2c(Cl)cccc2Cl)cc1)C(=O)O (relative stereo)
≥ 6.60

Requested field: pIC50. Item: `COC(=O)[C@H](Cc1ccc(OCc2c(Cl)cccc2Cl)cc1)NC(=O)[C@H]1CSCN1S(C)(=O)=O`
≤ 6.00

Requested field: pIC50. Item: `O=C(O)c1ccc(C(=O)N2CCCC[C@H]2C(=O)N[C@@H](Cc2ccc(NC(=O)c3c(Cl)cccc3Cl)cc2)C(=O)O)nc1`
≤ 6.00

Requested field: pIC50. Item: `O=C(O)c1cccc(C(=O)N2CCC(C(=O)N[C@@H](Cc3ccc(NC(=O)c4c(Cl)cccc4Cl)cc3)C(=O)O)CC2)c1`
≤ 6.00

Requested field: pIC50. Item: CC(C)(C)OC(=O)N1CCSC[C@H]1C(=O)N[C@@H](Cc1ccc(NC(=O)c2c(Cl)cccc2Cl)cc1)C(=O)O (relative stereo)
6.00 to 6.60

Requested field: pIC50. Item: `COC(=O)[C@H](Cc1ccc(NC(=O)c2c(Cl)cccc2Cl)cc1)NC(=O)[C@H]1CSCN1C(C)=O`
6.00 to 6.60

Requested field: pIC50. Item: CCOC(=O)N1CSC(C)(C)[C@@H]1C(=O)N[C@@H](Cc1ccc(NC(=O)c2c(Cl)cccc2Cl)cc1)C(=O)O (relative stereo)
≥ 6.60
